Hey, just so you know, these numbers are from PubChem BioAssay AID1745844.

tested on: rodent lifetime carcinogenesis bioassay, tumor incidence TD50; assay: carcinogenic potency in animals, long-term in vivo studies, CPDB compilation (AID 1745844); details: hamster; strain Syrian Golden; females; by gavage; site: liver; lesion: hepatocellular adenoma; dosed 50 weeks; study length 65 weeks
measurement-kind: TD50

(Q) Entry O=NC(=O)CCNCCO has what TD50?
(A) 5.58 mg/kg/day

====

test system: rodent lifetime carcinogenesis bioassay, tumor incidence TD50; assay: carcinogenic potency in animals, long-term in vivo studies, CPDB compilation (AID 1745844); details: rat; strain Charles River CD (Sprague-Dawley); males; in feed; site: urinary bladder; lesion: transitional-cell papilloma; dosed 142 weeks; study length 142 weeks
measurement-kind: TD50

(Q) Requested read-out TD50, target or system rodent lifetime carcinogenesis bioassay, tumor incidence TD50, entry O=C1NS(=O)(=O)c2ccccc21
(A) 30800 mg/kg/day

====

tested on: rodent lifetime carcinogenesis bioassay, tumor incidence TD50; experiment: carcinogenic potency in animals, long-term in vivo studies, CPDB compilation (AID 1745844); details: rat; strain Fischer 344; males; in feed; site: all sites; lesion: leukemia + lymphoma; dosed 98 weeks; study length 104 weeks
measurement-kind: TD50 (mg/kg/day)
Give your result in mg/kg/day as a bare value.

(Q) Name the reported TD50 value associated with the compound C/C=C(/C)C(=O)O[C@H]1CCN2CC=C(COC(=O)[C@@](O)([C@H](C)OC)C(C)(C)O)[C@H]12
(A) 0.514

====

test system: rodent lifetime carcinogenesis bioassay, tumor incidence TD50; assay: carcinogenic potency in animals, long-term in vivo studies, CPDB compilation (AID 1745844); settings: rat; strain Sprague-Dawley; males; inhaled; site: extrahepatic tissue; lesion: angiosarcoma; dosed 52 weeks; study length 139 weeks
measurement-kind: TD50 (mg/kg/day)
All answers are understood in mg/kg/day, so give the number only.

(Q) Can you share its TD50? I mean this compound: C=CCl
(A) 11.7

====

system: rodent lifetime carcinogenesis bioassay, tumor incidence TD50; assay: carcinogenic potency in animals, long-term in vivo studies, CPDB compilation (AID 1745844); conditions: rat; strain Alpk:APfSD; males; by gavage; site: stomach; lesion: squamous-cell carcinoma; dosed 52 weeks; study length 100 weeks
measurement-kind: TD50

(Q) Can you share its TD50? I mean this compound: FCCl
(A) 46.9 mg/kg/day

====

tested on: rodent lifetime carcinogenesis bioassay, tumor incidence TD50; assay: carcinogenic potency in animals, long-term in vivo studies, CPDB compilation (AID 1745844); conditions: rat; strain F344/DuCrj; males; in feed; site: all sites; lesion: lymphoma and leukemia, combined; dosed 104 weeks; study length 112 weeks
Activity calls are given as the source filed them. The rule behind the calls is not given here.
measurement-kind: TD50

(Q) I'd like to know its TD50. The molecule in question is O=c1c(O)c(-c2ccc(O)c(O)c2)oc2cc(O)cc(O)c12
(A) 1160 mg/kg/day (inactive)

====

system: rodent lifetime carcinogenesis bioassay, tumor incidence TD50; assay: carcinogenic potency in animals, long-term in vivo studies, CPDB compilation (AID 1745844); conditions: mouse; strain B6C3F1; females; in feed; site: forestomach; lesion: squamous-cell papilloma; dosed 104 weeks; study length 106 weeks
measurement-kind: TD50 (mg/kg/day)
Expressed in mg/kg/day, but write only the number.

(Q) Name the reported TD50 value associated with the molecule OCC(CO)(CBr)CBr
(A) 446

====

tested on: rodent lifetime carcinogenesis bioassay, tumor incidence TD50; assay: carcinogenic potency in animals, long-term in vivo studies, CPDB compilation (AID 1745844); details: mouse; strain Swiss albino; males; in drinking water; site: lung; lesion: several types; types named in the paper; dosed 72 weeks; study length 72 weeks
measurement-kind: TD50

(Q) // TD50 lookup, key: CCNN
(A) 8.81 mg/kg/day

====

test system: rodent lifetime carcinogenesis bioassay, tumor incidence TD50; assay: carcinogenic potency in animals, long-term in vivo studies, CPDB compilation (AID 1745844); settings: rat; strain F344/DuCrj; females; in drinking water; site: pharynx; lesion: several types; types named in the paper; dosed 50 weeks; study length 50 weeks
measurement-kind: TD50

(Q) Given CCCCN(N=O)C(N)=O , state its recorded TD50.
(A) 8.05 mg/kg/day

====

test system: rodent lifetime carcinogenesis bioassay, tumor incidence TD50; test: carcinogenic potency in animals, long-term in vivo studies, CPDB compilation (AID 1745844); settings: rat; strain F344/DuCrj; males; in drinking water; site: liver; lesion: neoplastic nodule; dosed 72 weeks; study length 83 weeks
measurement-kind: TD50 (mg/kg/day)
// note: answer is a bare numeric in mg/kg/day

(Q) Any idea what TD50 was measured for Cc1c(N(C)CS(=O)(=O)O)c(=O)n(-c2ccccc2)n1C ?
(A) 400

====

tested on: rodent lifetime carcinogenesis bioassay, tumor incidence TD50; experiment: carcinogenic potency in animals, long-term in vivo studies, CPDB compilation (AID 1745844); conditions: monkey; strain Rhesus [Macaca mulatta]; both sexes; i.p.; site: any site (literature study); lesion: malignant tumor; dosed 133 weeks; study length 133 weeks
measurement-kind: TD50 (mg/kg/day)
Give just the numeric value; mg/kg/day need not be written.

(Q) Kindly state the measured TD50 obtained for CCCN(CCC)N=O with rodent lifetime carcinogenesis bioassay, tumor incidence TD50.
(A) 0.0121

====

tested on: rodent lifetime carcinogenesis bioassay, tumor incidence TD50; test: carcinogenic potency in animals, long-term in vivo studies, CPDB compilation (AID 1745844); settings: rat; strain Fischer 344; males; in feed; site: liver; lesion: hepatocellular carcinoma; dosed 52 weeks; study length 52 weeks
measurement-kind: TD50

(Q) I have this molecule here, Cc1cccc(Nc2cc(Cl)nc(SCC(=O)O)n2)c1C , and I need its recorded TD50.
(A) 19.2 mg/kg/day

====

test system: rodent lifetime carcinogenesis bioassay, tumor incidence TD50; experiment: carcinogenic potency in animals, long-term in vivo studies, CPDB compilation (AID 1745844); conditions: mouse; strain D2B6F1 mice; males; in feed; site: liver; lesion: several types; types named in the paper; dosed 60 weeks; study length 61 weeks
measurement-kind: TD50

(Q) Fill in: TD50 of ClC1=C(Cl)C2(Cl)C3C(Cl)C(Cl)CC3C1(Cl)C2(Cl)Cl (stereo unspecified) is ___
(A) 1.93 mg/kg/day

====

test system: rodent lifetime carcinogenesis bioassay, tumor incidence TD50; experiment: carcinogenic potency in animals, long-term in vivo studies, CPDB compilation (AID 1745844); details: rat; strain Fischer 344; females; in drinking water; site: thyroid follicle; lesion: several types; types named in the paper; dosed 94 weeks; study length 130 weeks
Calls of active or inactive are those of the source. No rule for the calls is given here.
measurement-kind: TD50

(Q) // lookup TD50 for CN(C)CCN(Cc1ccco1)c1ccccn1
(A) 559 mg/kg/day (inactive)

====

system: rodent lifetime carcinogenesis bioassay, tumor incidence TD50; experiment: carcinogenic potency in animals, long-term in vivo studies, CPDB compilation (AID 1745844); conditions: rat; strain Sprague-Dawley; males; inhaled; site: pituitary gland; lesion: one or several types; types not named; dosed 52 weeks; study length 130 weeks
measurement-kind: TD50 (mg/kg/day)
API: value field is a number in mg/kg/day; no unit string.

(Q) // returns reported TD50 for input C=CCl
(A) 138

====

system: rodent lifetime carcinogenesis bioassay, tumor incidence TD50; test: carcinogenic potency in animals, long-term in vivo studies, CPDB compilation (AID 1745844); settings: mouse; strain Charles River CD1; females; in feed; site: all sites; lesion: malignant lymphoma, lymphocytic type; dosed 104 weeks; study length 104 weeks
Activity calls are given as the source filed them. How the calls were made is not given here.
measurement-kind: TD50

(Q) Query: TD50; subject: O=C(O)C1=NN(c2ccc(S(=O)(=O)O)cc2)C(=O)C1N=Nc1ccc(S(=O)(=O)O)cc1 (stereo unspecified)
(A) 1430 mg/kg/day (inactive)

====

test system: rodent lifetime carcinogenesis bioassay, tumor incidence TD50; experiment: carcinogenic potency in animals, long-term in vivo studies, CPDB compilation (AID 1745844); settings: hamster; strain Syrian Golden; females; inhaled; site: larynx; lesion: several types; types named in the paper; dosed 52 weeks; study length 81 weeks
measurement-kind: TD50

(Q) Any idea what TD50 came out for CC=O on rodent lifetime carcinogenesis bioassay, tumor incidence TD50?
(A) 728 mg/kg/day

====

system: rodent lifetime carcinogenesis bioassay, tumor incidence TD50; experiment: carcinogenic potency in animals, long-term in vivo studies, CPDB compilation (AID 1745844); conditions: rat; strain August; males; by gavage; site: liver; lesion: hepatocellular adenoma + hepatocellular carcinoma + neoplastic nodule; dosed 103 weeks; study length 104 weeks
measurement-kind: TD50 (mg/kg/day)
Express it in mg/kg/day; write the number only.

(Q) TD50 for ClC=C(Cl)Cl ?
(A) 6440

====

tested on: rodent lifetime carcinogenesis bioassay, tumor incidence TD50; experiment: carcinogenic potency in animals, long-term in vivo studies, CPDB compilation (AID 1745844); settings: rat; strain Charles River CD (Sprague-Dawley); males; inhaled; site: liver; lesion: neoplastic nodule; dosed 43 weeks; study length 95 weeks
measurement-kind: TD50 (mg/kg/day)
Your answer is read as mg/kg/day, so omit the unit and give the number.

(Q) Data request, read-out TD50, for C=CCl
(A) 34.6
